Below, IC50 values reported for Beta-adrenergic receptor kinase 1 (Homo sapiens) across several publications.
Answer in µM, number only, no unit symbol.

Problem: # get_value(readout= IC50, system= Beta-adrenergic receptor kinase 1 (Homo sapiens)) for COc1cccc(OC)c1CNC(=O)c1cc([C@@H]2CCNC[C@H]2COc2cc3cn[nH]c3cc2F)ccc1F
Solution: 0.4

Problem: Same question for C#CCN(CC(C)C)C(=O)Cc1cc(C2NC(=O)NC(C)=C2C(=O)Nc2ccc3[nH]ncc3c2)ccc1F (stereo not shown) please.
Solution: 2.6

Problem: Same question for COc1cccc([C@H]2COCCCCC3c4ccc(-c5cn[nH]c5)cc4C(=O)N32)c1 (mixture of isomers) please.
Solution: 1.4

Problem: Same question for COc1cccc(N2CC=CCC3c4ccc(-c5cn[nH]c5)cc4C(=O)N32)c1 (racemic) please.
Solution: 0.008
